- TARGET_ENTITY: EGFR L858R/T790M/C797S (BaF3-LTC cells) (Homo sapiens, UniProt P00533, C797S/L858R/T790M)
- Construct: expressed in transfected cells; host or cells: BaF3
- Sequence (P00533 25-1210 T790M/C797S/L858R): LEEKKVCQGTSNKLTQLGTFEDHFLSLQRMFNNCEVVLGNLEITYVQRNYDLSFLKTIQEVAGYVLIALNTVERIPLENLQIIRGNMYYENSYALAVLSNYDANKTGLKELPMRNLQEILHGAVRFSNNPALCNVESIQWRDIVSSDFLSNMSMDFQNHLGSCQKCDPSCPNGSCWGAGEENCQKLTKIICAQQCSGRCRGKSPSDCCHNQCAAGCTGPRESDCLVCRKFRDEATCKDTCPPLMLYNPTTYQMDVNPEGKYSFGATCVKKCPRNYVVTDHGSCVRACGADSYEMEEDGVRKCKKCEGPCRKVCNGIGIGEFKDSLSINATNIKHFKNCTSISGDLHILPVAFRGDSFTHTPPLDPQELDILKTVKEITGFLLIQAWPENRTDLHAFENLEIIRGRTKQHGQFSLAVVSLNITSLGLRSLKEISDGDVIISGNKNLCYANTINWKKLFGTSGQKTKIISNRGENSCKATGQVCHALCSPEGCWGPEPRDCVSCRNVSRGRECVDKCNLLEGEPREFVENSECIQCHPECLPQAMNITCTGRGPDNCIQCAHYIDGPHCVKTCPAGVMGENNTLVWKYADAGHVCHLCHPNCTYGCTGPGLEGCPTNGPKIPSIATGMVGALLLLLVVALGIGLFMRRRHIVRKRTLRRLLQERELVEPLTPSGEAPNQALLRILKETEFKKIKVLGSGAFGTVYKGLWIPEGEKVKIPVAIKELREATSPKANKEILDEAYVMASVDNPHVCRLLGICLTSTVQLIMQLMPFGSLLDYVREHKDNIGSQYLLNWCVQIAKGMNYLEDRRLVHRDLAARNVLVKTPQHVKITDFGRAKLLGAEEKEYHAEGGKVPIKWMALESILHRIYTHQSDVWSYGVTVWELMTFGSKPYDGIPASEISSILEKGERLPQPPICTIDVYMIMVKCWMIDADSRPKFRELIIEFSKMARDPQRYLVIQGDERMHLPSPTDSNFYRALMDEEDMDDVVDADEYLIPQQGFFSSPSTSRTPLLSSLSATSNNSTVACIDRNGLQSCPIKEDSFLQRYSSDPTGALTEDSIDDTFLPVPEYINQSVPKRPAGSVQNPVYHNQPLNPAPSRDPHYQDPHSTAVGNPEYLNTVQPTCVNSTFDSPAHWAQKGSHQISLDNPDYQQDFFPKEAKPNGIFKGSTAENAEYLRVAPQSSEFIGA
- ASSAY: EGFR degradation HTRF assay, BaF3-LTC cells
- Type: cell-based
- CONDITION_LABEL: BaF3-LTC cells; EGFR degradation, IC50 (DC50) from curve fit; read-out: DC50(nM) BaF3-LTC
Field: class. Source value: DC50. Ranges: lowest = under 6 nM, middle = from 6 nM up to 10 nM, highest = 10 nM and over

>>> label("CCc1ccc2c(P(C)(C)=O)c(Nc3nc(Nc4cc(CC)c(N5CCC(N6CCN(CCc7c(F)ccc8c7oc(=O)n8C7CCC(=O)NC7=O)CC6)CC5)cc4OC)ncc3Br)ccc2n1 (stereo not shown) [Example 444]")
"middle"
>>> label("CCc1cc(Nc2ncc(Br)c(Nc3ccc4nc(C)ccc4c3P(C)(C)=O)n2)c(OC2CC2)cc1N1CCC(N2CCN(CCCc3cc(F)cc4c3oc(=O)n4C3CCC(=O)NC3=O)CC2)CC1 (stereo not shown) [Example 607]")
"highest"
>>> label("CCc1ccc2c(P(C)(C)=O)c(Nc3nc(Nc4cc(CC)c(N5CCC(N6CCC(CCc7cc(F)c(C8CCC(=O)NC8=O)c(F)c7)CC6)CC5)cc4OC)ncc3Br)ccc2n1 (stereo not shown) [Example 583]")
"highest"
>>> label("CCOc1cc(N2CCC(N3CCN(CCc4cccc5c4C(C)(C)C(=O)N5C4CCC(=O)NC4=O)CC3)CC2)c(CC)cc1Nc1ncc(Br)c(Nc2ccc3nc(CC)ccc3c2P(C)(C)=O)n1 (stereo not shown) [Example 572]")
"lowest"
>>> label("CCc1ccc2c(P(C)(C)=O)c(Nc3nc(Nc4cc(CC)c(N5CCC(N6CCN(CCc7cccc8c7n(C)c(=O)n8C7CCC(=O)NC7=O)CC6)CC5)cc4OC)ncc3Br)ccc2n1 (stereo not shown) [Example 451]")
"lowest"
>>> label("CCOc1cc(N2CCC(N3CCN(CCc4c(F)ccc5c4n(C)c(=O)n5C4CCC(=O)NC4=O)CC3)CC2)c(CC)cc1Nc1ncc(Br)c(Nc2ccc3nc(CC)ccc3c2P(C)(C)=O)n1 (stereo not shown) [Example 503]")
"middle"
>>> label("CCc1cc(Nc2ncc(Br)c(Nc3ccc4ccnnc4c3P(C)(C)=O)n2)c(OC)cc1N1CCC(N2CCN(C(=O)[C@@H]3CCN(c4cc(F)c([C@H]5CCC(=O)NC5=O)c(F)c4)C3)CC2)CC1 [Example 656]")
"lowest"
>>> label("CCOc1cc(N2CCC(N3CCN(CCc4cc5oc(=O)n(C6CCC(=O)NC6=O)c5cc4F)CC3)CC2)c(CC)cc1Nc1ncc(Br)c(Nc2ccc3nc(CC)ccc3c2P(C)(C)=O)n1 (stereo not shown) [Example 492]")
"lowest"
>>> label("CCc1cc(Nc2ncc(Br)c(Nc3ccc4nc(C)ccc4c3P(C)(C)=O)n2)c(OC2CC2)cc1N1CCC(N2CCN(CCc3ccc4c(c3)oc(=O)n4C3CCC(=O)NC3=O)CC2)CC1 (stereo not shown) [Example 557]")
"middle"
>>> label("CCc1cc(Nc2ncc(Br)c(Nc3ccc4nc(NC5CC5)ccc4c3P(C)(C)=O)n2)c(OC)cc1N1CCC(N2CCN(C(=O)[C@@H]3CCN(c4cc(F)c([C@H]5CCC(=O)NC5=O)c(F)c4)C3)CC2)CC1 [Example 652]")
"lowest"
>>> label("CCc1cnc2c(P(C)(C)=O)c(Nc3nc(Nc4cc(CC)c(N5CCC(N6CCN(C(=O)[C@@H]7CCN(c8cc(F)c([C@H]9CCC(=O)NC9=O)c(F)c8)C7)CC6)CC5)cc4OC)ncc3Br)ccc2n1 [Example 538]")
"highest"
>>> label("CCc1cc(Nc2ncc(Br)c(Nc3ccc4c(=O)n(CC)ncc4c3P(C)(C)=O)n2)c(OC)cc1N1CCC(N2CCN(C(=O)[C@@H]3CCN(c4cc(F)c([C@H]5CCC(=O)NC5=O)c(F)c4)C3)CC2)CC1 [Example 673]")
"lowest"
>>> label("CCc1ccc2c(P(C)(C)=O)c(Nc3nc(Nc4cc(CC)c(N5CCC(N6CCN(CCc7cc(F)cc8c7oc(=O)n8C7CCC(=O)NC7=O)CC6)CC5)cc4OC)ncc3Br)ccc2n1 (stereo not shown) [Example 443]")
"highest"
>>> label("CCOc1cc(N2CCC(N3CCN(CC4CN(c5cc(F)c([C@H]6CCC(=O)NC6=O)c(F)c5)C4)CC3)CC2)c(CC)cc1Nc1ncc(Br)c(Nc2ccc3nc(CC)ncc3c2P(C)(C)=O)n1 [Example 590]")
"highest"
>>> label("CCOc1cc(N2CCC(N3CCN(CCc4cc5oc(=O)n(C6CCC(=O)NC6=O)c5cc4Cl)CC3)CC2)c(CC)cc1Nc1ncc(Br)c(Nc2ccc3nc(CC)ccc3c2P(C)(C)=O)n1 (stereo not shown) [Example 627]")
"middle"
>>> label("CCOc1cc(N2CCC(N3CCN(CCCCc4cc(F)cc5c4oc(=O)n5C4CCC(=O)NC4=O)CC3)CC2)c(CC)cc1Nc1ncc(Br)c(Nc2ccc3nc(CC)ccc3c2P(C)(C)=O)n1 (stereo not shown) [Example 632]")
"highest"
>>> label("CCc1ncc2c(P(C)(C)=O)c(Nc3nc(Nc4cc(CC)c(N5CCC(N6CCN(CCc7cc(F)c([C@H]8CCC(=O)NC8=O)c(F)c7)CC6)CC5)cc4OC)ncc3Br)ccc2n1 [Example 589]")
"lowest"

Values compiled from patent US20230265116A1.
